test: folding stability dG unfold from chymotrypsin proteolysis; higher = more stable
Returns one of yes or no; yes when folding stability dG unfold is >= 2 kcal/mol.

chain sequence	group label
SAGGSAGGSMIKIKVKSKEDVEALIKELEKAGFKVKKVEEVDGKVYFTLENGEKIEIEVVPPESAGGSAGGS [r20_93_TrROS_Hall]	yes
SAGGSAGGSAGGKPITIERNEDNGPIEIRFPGNGRRIHFPFPPGDDITIDAEDGNIEIKSAGGSAGGSAGGS [r10_979_TrROS]	no
SAGGSAGGSAGGKTLTLVFKTKEEAEEAAKKLGFKKVEVKEFKNEDGEKYLVVKIELKPSAGGSAGGSAGGS [r10_494_TrROS_Hall]	yes
SAGGLDAVLAELAKKPPGVTVELPVELPDGSRVVLTATWPAETSSPVITVKYYDPNRPEAVEEETFTVTSAG [r5_35_JUSTAS]	no
SAGGSAGGSAGGQLKLKLKVKVTTRVRDPATGKTYTVTEEVEVTVELEFPPPPLPPGFKSAGGSAGGSAGGS [r10_1026_TrROS_Hall]	yes
SAGGSAGGSAGPEILIVVESEEEAKKLAEELARALREAGLPEDAKIKIKIIVLPKEELEKSAGGSAGGSAGG [r17_180_TrROS_Hall]	yes
SAGGSAGGSAGGSWLEFTFIDPGYGWIISTMKIEINPNGNLNMDMEMVPLKPADDPEDASAGGSAGGSAGGS [r4_178_TrROS]	yes

Origin of measurements: the supplement of paper PMC12764529
